- System: Plasmodium falciparum
- ASSAY_PROTOCOL: Antimalarial activity against chloroquine-resistant Plasmodium falciparum Dd2 assessed as inhibition of parasite growth
- Format: functional, organism-based
ATTRIBUTE_MEASURED: IC50 (µM)

[[record]]
compound = "O=C(O)C(Cc1c[nH]c2ccccc12)Nc1ccnc2cc(Cl)ccc12 (stereo not drawn)"
tgt = "Plasmodium falciparum"
numeric_value = 5

[[record]]
compound = "O=C(O)CCCCCCCCCCCNc1ccnc2cc(Cl)ccc12"
tgt = "Plasmodium falciparum"
numeric_value = 4

[[record]]
compound = "CC(C)Cc1ccc(C(C)C(=O)NCCNc2ccnc3cc(Cl)ccc23)cc1 (stereo not drawn)"
tgt = "Plasmodium falciparum"
numeric_value = 0.201


Provenance of the data: ChEMBL document CHEMBL5344418
